test system: coronavirus BJ01 strain; assay: organism not typed; assay type: cell-based, coronavirus (SARS); conditions: Vero C1008, 120 h
// reported IC50 per item
readout name: IC50 (µg/mL)

>>> test_result("COc1c(O)c(CN2CCCCC2)c2occ(-c3ccc(O)cc3)c(=O)c2c1O")
125
>>> test_result("COc1c(O)c(CN(C)C)c2occ(-c3ccc(O)cc3)c(=O)c2c1O")
119
>>> test_result("COc1c(O)cc2occ(-c3ccc(OCCN(C)C)cc3)c(=O)c2c1O")
112
>>> test_result("COc1c(O)cc2occ(-c3ccc(OCC(=O)[O-])cc3)c(=O)c2c1O.[Na+]")
102
>>> test_result("COc1c(O)cc2occ(-c3ccc(O)c(S(=O)(=O)[O-])c3)c(=O)c2c1O.[Na+] [Compound (IV), tectorigenin sodium sulfonate]")
97.6
>>> test_result("COc1c(O)cc2occ(-c3ccc(O)c(N)c3)c(=O)c2c1O")
120
